System: ragweed
Assay: Test C postemergence
Format: in vivo, Ambrosia artemisiifolia
Settings: Postemergence, 125 g ai/ha; 0 to 100 scale (0 no effect, 100 complete control), 10 days
Parameter Plant response rating, Ragweed: see the listing below.

- Molecule: "C=C(C)c1cc(C(=O)N2C[C@H](C)Oc3c(Cl)cccc32)cc(-n2cncn2)c1"
  Plant response rating, Ragweed: 0
- Molecule: "Cc1cccc2c1OC(C(F)(F)F)CN2C(=O)c1ccnc(-n2cnc(C(C)C)n2)c1 (single isomer, unassigned) [Compound 320]"
  Plant response rating, Ragweed: 0
- Molecule: "Cc1ccc(-n2cnc(C(C)(C)C#N)n2)cc1C(=O)N1C[C@H](C)Oc2c(Cl)cccc21"
  Plant response rating, Ragweed: 100
- Molecule: "Cc1ncn(-c2ccc(F)c(C(=S)N3C[C@H](C)Oc4c(C)cccc43)c2)n1"
  Plant response rating, Ragweed: 50
- Molecule: "CCOC[C@H]1CN(C(=O)c2cc(-n3cnc(C(C)C)n3)cc3c2OCCO3)c2cccc(Cl)c2O1"
  Plant response rating, Ragweed: 70
- Molecule: "Cc1cccc2c1OC(C(F)(F)F)CN2C(=O)c1ccnc(-n2cnc(C(C)C)n2)c1 (single isomer, unassigned) [Compound 328]"
  Plant response rating, Ragweed: 40
- Molecule: "Cc1ccc(-n2cnc(CC#N)n2)cc1C(=O)N1C[C@H](C)Oc2c(Cl)cccc21"
  Plant response rating, Ragweed: 70

* * *

Parameter Plant response rating, Wheat: see the listing below.
Tested on: wheat
Assay: Test C postemergence
Format: in vivo, Triticum aestivum
Settings: Postemergence, 500 g ai/ha, 10 days, visual 0 to 100 scale (0 no effect, 100 complete control)
Attribute measured: Plant response rating, Wheat

- Structure smiles string: "Cc1cccc2c1O[C@H](C)CN2C(=O)c1cccc(-c2ncn(C(C)C)n2)c1"
  Number: 0
- Structure smiles string: "CC(C)=C(C)c1ncn(-c2cccc(C(=O)N3C[C@H](C)Oc4c(C)cccc43)c2)n1"
  Number: 50
- Structure smiles string: "Cc1ccc(-n2cnc(C3(C)CCC3)n2)cc1C(=O)N1C[C@H](C)Oc2c(Cl)cccc21"
  Number: 20
- Structure smiles string: "Cc1cc(-n2cnc(C(C)C)n2)cc(C(=O)N2C[C@H](C)Oc3c(Cl)cccc32)c1C"
  Number: 20

* * *

System: horseweed
Test: Test A postemergence
Assay type: in vivo, Erigeron canadensis
Details: 500 g ai/ha, Postemergence; 0 to 100 scale
Parameter Plant response rating, Horseweed: see the listing below.

- Compound: "CC1CN(C(=O)c2cc(-n3cncn3)ccc2F)c2cccc(Cl)c2O1 (stereo not drawn)"
  Plant response rating, Horseweed: 20
- Compound: "Cc1cccc2c1O[C@@H](C)CN2C(=O)c1cccc(-n2cnc(C(C)(C)C)n2)c1"
  Plant response rating, Horseweed: 20
- Compound: "Cc1cccc2c1O[C@@H](C)CN2C(=O)c1cc(-n2cncn2)ccc1F"
  Plant response rating, Horseweed: 10
- Compound: "CC1CN(C(=O)c2cccc(-n3cncn3)c2)c2c(F)cccc2O1 (stereo not drawn)"
  Plant response rating, Horseweed: 0
- Compound: "Cc1cccc2c1O[C@@H](C)CN2C(=O)c1ccc(F)c(-n2cncn2)c1"
  Plant response rating, Horseweed: 0
- Compound: "Cc1c(C(=O)N2CC(C)Oc3c(Cl)cccc32)cccc1-n1cncn1 (stereo not drawn)"
  Plant response rating, Horseweed: 0
